Hi there, I'd appreciate the recorded Kd for every entry that follows.
- assayed-system: human TGFßRII (antigen of the Octet experiments) (human, UniProt P37173 23-166)
- Sequence (P37173 23-166): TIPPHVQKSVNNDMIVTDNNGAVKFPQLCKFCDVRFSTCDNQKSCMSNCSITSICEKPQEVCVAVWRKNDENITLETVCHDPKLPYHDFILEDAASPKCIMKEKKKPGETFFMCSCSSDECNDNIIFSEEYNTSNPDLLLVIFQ
- test-name: BLI (Octet)
Kindly provide the numeric value in nM only, without the unit symbol.

### Prompt Look up Kd for this binder: H1.19 L1 XENP34475 (antibody, V domains shown) VH: QLQVQESGPGLVKPSETLSLTCTVSGGSISNGYFSWGWIRQPPGKGLEWIGSFYYGEKTYYNPSLKSRATISIDTSKSQFSLKLSSVTAADTAVYYCPRGPTMIRGVIDSWGQGTLVTVSS VL: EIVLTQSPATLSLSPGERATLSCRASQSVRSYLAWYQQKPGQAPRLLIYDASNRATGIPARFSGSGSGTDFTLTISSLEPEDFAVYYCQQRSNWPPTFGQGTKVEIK
### Response 0.836

### Prompt Fill blank: measured Kd of the binder H1.11 L1 XENP34467 (antibody, V domains shown) VH: QLQVQESGPGLVKPSETLSLTCTVSGGSISDSYFSWGWIRQPPGKGLEWIGSFYYGEKTYYNPSLKSRATISIDTSKSQFSLKLSSVTAADTAVYYCPRGPTMIRGVIDSWGQGTLVTVSS VL: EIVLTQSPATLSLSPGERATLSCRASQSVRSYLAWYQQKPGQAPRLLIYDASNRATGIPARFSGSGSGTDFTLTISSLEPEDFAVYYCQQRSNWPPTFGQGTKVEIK is ____.
### Response 0.419

### Prompt // returns reported Kd for input H1.28 L1 XENP34484 (antibody, V domains shown) VH: QLQVQESGPGLVKPSETLSLTCTVSGGSISNSYFAWGWIRQPPGKGLEWIGSFYYGEKTYYNPSLKSRATISIDTSKSQFSLKLSSVTAADTAVYYCPRGPTMIRGVIDSWGQGTLVTVSS VL: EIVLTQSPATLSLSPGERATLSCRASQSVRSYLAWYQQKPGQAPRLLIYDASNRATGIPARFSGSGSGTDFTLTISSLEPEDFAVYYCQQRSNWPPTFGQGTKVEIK
### Response 3.6

### Prompt Param item = H1.18 L1 XENP34474 (antibody, V domains shown) VH: QLQVQESGPGLVKPSETLSLTCTVSGGSISNAYFSWGWIRQPPGKGLEWIGSFYYGEKTYYNPSLKSRATISIDTSKSQFSLKLSSVTAADTAVYYCPRGPTMIRGVIDSWGQGTLVTVSS VL: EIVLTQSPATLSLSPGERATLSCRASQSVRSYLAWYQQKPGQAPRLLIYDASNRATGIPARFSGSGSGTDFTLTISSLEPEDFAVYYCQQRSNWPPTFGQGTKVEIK ; retrieve measured Kd.
### Response 0.205

### Prompt So what's the measured Kd for this one? H1.1 L1 XENP28299 (antibody, V domains shown) VH: QLQVQESGPGLVKPSETLSLTCTVSGGSISNSYFSWGWIRQPPGKGLEWIGSFYYGEKTYYNPSLKSRATISIDTSKSQFSLKLSSVTAADTAVYYCPRGPTVIRGVIDSWGQGTLVTVSS VL: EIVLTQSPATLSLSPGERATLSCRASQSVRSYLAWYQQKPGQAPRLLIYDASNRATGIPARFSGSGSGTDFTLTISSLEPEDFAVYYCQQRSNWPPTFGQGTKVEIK
### Response 0.325

Data credit: patent US20220144956A1
